Values were extracted from ChEMBL document CHEMBL1949494.

- target: Neuronal acetylcholine receptor subunit alpha-7 (Rattus norvegicus)
- method_summary: Displacement of [3H]methyllylcaconitine from alpha7 nAChR in rat brain
assay_readout: pKi
Answers are plain numbers, as −log10 of the molar value.

Hi team, please reply with pKi for each item in this list.
1. CN1C[C@H]2CN(c3ccc4c(c3)S(=O)(=O)c3ccccc3-4)C[C@H]21
2. CCN(CC)CCOc1ccc2c(c1)sc1cc(OCCN(CC)CC)ccc12

1: 7.64; 2: 5.80

Record pKi per entry; entries follow.
1. O=C1c2ccccc2-c2ccc(O[C@H]3CN4CCC3CC4)cc21
2. CN1CCC[C@H]1COc1ccc2c(c1)C(=O)c1cc(OC[C@@H]3CCCN3C)ccc1-2

8.49
7.92

----------
- target: Neuronal acetylcholine receptor subunit alpha-7 (Rattus norvegicus)
- method_summary: Displacement of [3H]methyllylcaconitine from alpha7 nAChR in rat brain
pKi: −log10 of the molar value.
Binary classification by pKi, with 7 as an inclusive lower bound for class 1; all other cases are class 0.

Example entries begin here.
INSERT INTO assay_data (molecule, group_label) VALUES
  ('CCN(CC)CCCOc1ccc2c(c1)C(=O)c1cc(OCCCN(CC)CC)ccc1-2', 'class 0'),
  ('CC(C)N(CCOc1ccc2c(c1)C(=O)c1cc(OCCN(C(C)C)C(C)C)ccc1-2)C(C)C', 'class 0'),
  ('CN(C)CCOc1ccc2c(c1)C(=O)c1cc(OCCN(C)C)ccc1-2', 'class 1');

Does CN1CCC[C@@H]1COc1ccc2c(c1)C(=O)c1cc(OC[C@H]3CCCN3C)ccc1-2 have a reported pKi of at least 7?
class 1

----------
- target: Neuronal acetylcholine receptor; alpha3/beta2 (Homo sapiens, UniProt P17787+P32297)
- Sequence (P17787 whole entry): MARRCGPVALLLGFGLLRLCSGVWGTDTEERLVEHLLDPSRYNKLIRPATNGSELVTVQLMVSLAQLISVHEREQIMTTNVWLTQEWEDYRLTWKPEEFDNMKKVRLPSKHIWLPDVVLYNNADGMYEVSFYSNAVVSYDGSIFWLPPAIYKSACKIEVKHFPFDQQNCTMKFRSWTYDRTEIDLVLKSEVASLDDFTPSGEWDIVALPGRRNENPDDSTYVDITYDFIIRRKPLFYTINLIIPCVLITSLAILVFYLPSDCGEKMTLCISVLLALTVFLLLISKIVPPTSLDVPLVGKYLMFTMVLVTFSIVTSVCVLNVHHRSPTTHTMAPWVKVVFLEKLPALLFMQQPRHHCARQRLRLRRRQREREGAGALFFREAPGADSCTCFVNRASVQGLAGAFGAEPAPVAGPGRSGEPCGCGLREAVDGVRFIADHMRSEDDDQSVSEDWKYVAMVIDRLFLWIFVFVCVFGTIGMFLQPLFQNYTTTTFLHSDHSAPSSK
- Sequence (P32297 whole entry): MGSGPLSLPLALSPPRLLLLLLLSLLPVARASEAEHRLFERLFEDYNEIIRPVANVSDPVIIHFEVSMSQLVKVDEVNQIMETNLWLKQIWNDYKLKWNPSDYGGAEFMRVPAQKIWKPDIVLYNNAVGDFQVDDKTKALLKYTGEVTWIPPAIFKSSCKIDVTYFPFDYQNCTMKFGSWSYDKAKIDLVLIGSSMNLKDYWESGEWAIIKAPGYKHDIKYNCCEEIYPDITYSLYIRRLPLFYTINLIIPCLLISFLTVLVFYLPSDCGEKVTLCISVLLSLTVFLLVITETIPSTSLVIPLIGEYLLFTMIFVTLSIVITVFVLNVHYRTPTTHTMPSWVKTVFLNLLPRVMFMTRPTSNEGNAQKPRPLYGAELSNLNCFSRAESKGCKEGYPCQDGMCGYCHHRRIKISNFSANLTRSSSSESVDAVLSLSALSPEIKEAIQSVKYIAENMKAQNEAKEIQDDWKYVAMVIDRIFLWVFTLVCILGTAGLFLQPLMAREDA
- method_summary: Agonist activity at alpha3beta2 nAChR receptor by FLIPR assay
pEC50: −log10 of the molar value.
assay_readout: pEC50

# pEC50 lookup, item CCN(CC)CCOc1ccc2c(c1)C(=O)c1cc(OCCN(CC)CC)ccc1-2 [TILORONE]
< 5.00

----------
- target: Neuronal acetylcholine receptor subunit alpha-7 (Rattus norvegicus, UniProt Q05941)
- Sequence (Q05941 whole entry): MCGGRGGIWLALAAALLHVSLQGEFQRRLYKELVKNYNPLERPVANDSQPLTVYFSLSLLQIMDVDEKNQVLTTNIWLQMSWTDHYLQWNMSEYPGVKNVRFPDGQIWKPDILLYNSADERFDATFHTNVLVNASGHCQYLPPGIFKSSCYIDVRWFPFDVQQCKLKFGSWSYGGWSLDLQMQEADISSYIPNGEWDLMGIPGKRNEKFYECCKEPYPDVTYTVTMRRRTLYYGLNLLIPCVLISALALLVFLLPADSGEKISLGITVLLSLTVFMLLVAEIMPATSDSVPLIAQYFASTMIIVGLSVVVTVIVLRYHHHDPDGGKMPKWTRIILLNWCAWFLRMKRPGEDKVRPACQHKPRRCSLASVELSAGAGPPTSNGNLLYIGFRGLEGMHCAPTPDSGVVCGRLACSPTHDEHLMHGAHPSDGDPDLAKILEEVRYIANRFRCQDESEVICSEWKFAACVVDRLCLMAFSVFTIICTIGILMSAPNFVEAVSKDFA
- method_summary: Displacement of [3H]methyllylcaconitine from alpha7 nAChR in rat brain
Would you kindly list log10 Ki for each of these compounds?
The figures below represent log10 of Ki, where Ki is stated in nM.

# example entries with known answers
INSERT INTO results (smiles_data, target, val) VALUES
  ('c1ccc2c(c1)Cc1cc(O[C@@H]3CN4CCC3CC4)ccc1-2', 'Neuronal acetylcholine receptor subunit alpha-7 (Rattus norvegicus, UniProt Q05941)', 2.53),
  ('O=C1c2cc(OCCN3CCCCC3)ccc2-c2ccc(OCCN3CCCCC3)cc21', 'Neuronal acetylcholine receptor subunit alpha-7 (Rattus norvegicus, UniProt Q05941)', 3.62),
  ('c1ccc2c(c1)Cc1cc(O[C@H]3CN4CCC3CC4)ccc1-2', 'Neuronal acetylcholine receptor subunit alpha-7 (Rattus norvegicus, UniProt Q05941)', 2.04);

I would be grateful if you could provide log10 Ki for each of the following entries.
1. CN1C[C@H]2CN(c3ccc4c(c3)C(=O)c3ccccc3-4)C[C@H]21
2. CCN(CC)CCOc1ccc2c(c1)C(=O)c1ccccc1-2

1. 0.77
2. 3.26

The following compounds each have a reported value; give each one's log10 Ki.
1. CN1CCN(c2ccc3c(c2)C(=O)c2cc(N4CCN(C)CC4)ccc2-3)CC1
2. O=C1c2cc(N3C[C@@H]4CN[C@@H]4C3)ccc2-c2ccc(N3C[C@@H]4CN[C@@H]4C3)cc21
3. O=c1c2ccccc2oc2ccc(O[C@@H]3CN4CCC3CC4)cc12
4. CCN(CC)CCOc1cccc(C(=O)c2cccc(OCCN(CC)CC)c2)c1
5. CN1CCCN(c2ccc3c(c2)C(=O)c2cc(N4CCCN(C)CC4)ccc2-3)CC1

2.15
1.26
0.94
4.83
0.81
